# ASSAY DETAILS: OD615 S. cerevisiae growth inhibition, permissive medium, pilot counter-assay, permissive growth control for S. cerevisiae lifespan shortening project (AID 705)
# CONDITION INFO: OD615, 24 h, at 10 µM, active compounds read high
Readings of growth inhibition for the listed molecules
OBSERVABLE: growth inhibition (%)

[[record]]
molecule = "C=CCSC1=C(C#N)C(c2ccc(OCC)cc2)CC(=O)N1 (stereo not given)"
assay_result = -11.9

[[record]]
molecule = "O=C(NCCc1csc(-c2cccnc2)n1)c1ccco1"
assay_result = 4.59

[[record]]
molecule = "O=C(O)CCC(=O)N1CCc2cc(S(=O)(=O)N3CCN(c4ccc(F)cc4)CC3)ccc21"
assay_result = -4.08

[[record]]
molecule = "Cc1nnc(Sc2nc3c(c(=O)[nH]c(=O)n3C)n2CCc2ccccc2)s1"
assay_result = -17.6

[[record]]
molecule = "O=C(NCc1ccc2c(c1)OCO2)C1CC(=O)N(CCc2ccccc2)C1 (stereo not given)"
assay_result = 0.26

[[record]]
molecule = "CCCSC1=C(C#N)C(c2ccc(Cl)cc2Cl)CC(=O)N1 (stereo not given)"
assay_result = 3.83

[[record]]
molecule = "Cc1ccc2oc(=O)c3cnn(CC(=O)NC4CCCCC4C)c3c2c1 (stereo not given)"
assay_result = -14

[[record]]
molecule = "CCN(CC)C(=O)CSc1nnc(-c2ccccc2)n1N"
assay_result = 3.57

[[record]]
molecule = "CC(=O)NCCc1nc2ccccc2n1Cc1ccccc1"
assay_result = 1.21

[[record]]
molecule = "COC(=O)C1=C(C)N(C)C(C)=C(C(=O)OC)C1c1ccsc1"
assay_result = -6.88

[[record]]
molecule = "Cc1nc2ccccc2c2oc(C(=O)N3CCN(C4CCCCC4)CC3)cc12"
assay_result = 7.91

[[record]]
molecule = "CN(C(=O)c1ccc(NC(=O)c2cnccn2)cc1)C1CCCCC1"
assay_result = 2.12

[[record]]
molecule = "COC(=O)c1ccc(NCC(=O)c2ccccc2)cc1"
assay_result = -7.25

[[record]]
molecule = "O=C(CCn1c(=O)sc2ccccc21)NCCN1CCOCC1"
assay_result = -3.08

[[record]]
molecule = "CCCC(=O)c1cc(F)c(N2CCN(CCC#N)CC2)cc1C"
assay_result = -9.06

[[record]]
molecule = "O=C(CCS(=O)(=O)c1cccc2nsnc12)N1CCN(C(=O)c2ccco2)CC1"
assay_result = -2.63

[[record]]
molecule = "CCOC(=O)C1=C(N)OC2=C(C(=O)CCC2)C1c1ccccc1OCC (stereo not given)"
assay_result = -3.85

[[record]]
molecule = "CC1CCC(NC(=O)CC2Oc3ccccc3NC2=O)CC1 (stereo not given)"
assay_result = 6.36

[[record]]
molecule = "Cc1cccc(-n2ncc3c(N4CC(C)CC(C)C4)ncnc32)c1 (stereo not given)"
assay_result = -1.33

[[record]]
molecule = "COc1ccc(C(=O)N(Cc2nc(-c3ccc(C)cc3)no2)C(C)C)cc1OC"
assay_result = -12.1

